Measured values drawn from paper PMC8619920 for this set.

- Procedure Summary: Cytotoxicity, LDH assay, A375 cells
- Format: cell-based, human
- Test Context: human, A375 malignant melanoma cells; 40 μg/mL, 24 h, mean ± SD of three; read-out: Cell viability A375
Field: viability at 24 h, 40 μg/mL. Provide a value for each of the compounds that follow.
Answers are plain numbers, in %.

Given CC(=O)OC1CC2(C)C(C(OC(C)=O)CC3(C)C2C(O)C=C2C4C(C)C(C)(O)CC(OC(C)=O)C4(C)CCC23C)C(C)(C)C1O (centres unmarked) , state its recorded viability at 24 h, 40 μg/mL.
82.6

---
Give its viability at 24 h, 40 μg/mL value. Item: CCC(C)C(=O)OC1C=C2C3C(C)C(C)(O)CC(OC(C)=O)C3(C)CCC2(C)C2(C)CC(OC(C)=O)C3C(C)(C)C(O)C(OC(C)=O)CC3(C)C12 (centres unmarked)
79.8

---

- Procedure Summary: Cytotoxicity, LDH assay, HTB140 cells
- Assay type: cell-based, human
- Test Context: human, HTB140 melanoma cells, 20 μg/mL, 24 h, mean ± SD of three; read-out: Cell viability HTB140
Endpoint Label: viability at 24 h, 20 μg/mL (%)
Answers are plain numbers, in %.

Can you share its viability at 24 h, 20 μg/mL? I mean this molecule: CC(=O)OC1CC2(C)C(C(OC(C)=O)CC3(C)C2C(O)C=C2C4C(C)C(C)(O)CC(OC(C)=O)C4(C)CCC23C)C(C)(C)C1O (centres unmarked) [Compound 2]
96.4

We now examine a further molecule.
Any idea what viability at 24 h, 20 μg/mL was measured for CCC(C)C(=O)OC1C=C2C3C(C)C(C)(O)CC(OC(C)=O)C3(C)CCC2(C)C2(C)CC(OC(C)=O)C3C(C)(C)C(O)C(OC(C)=O)CC3(C)C12 (centres unmarked) [Compound 1] ?
87.1

---

Exercise: state measured viability at 24 h, 20 μg/mL for each of the molecules provided.
- Procedure Summary: Cytotoxicity, LDH assay, HT29 cells
- Assay type: cell-based, human
- Test Context: human, HT29 colon adenocarcinoma cells, 20 μg/mL, 24 h, mean ± SD of three; read-out: Cell viability HT29
Answers are plain numbers, in %.

Give the measured viability at 24 h, 20 μg/mL of CCC(C)C(=O)OC1C=C2C3C(C)C(C)(O)CC(OC(C)=O)C3(C)CCC2(C)C2(C)CC(OC(C)=O)C3C(C)(C)C(O)C(OC(C)=O)CC3(C)C12 (centres unmarked) .
90.9

Moving on to the next molecule.
Looking for the measured viability at 24 h, 20 μg/mL of CC(=O)OC1CC2(C)C(C(OC(C)=O)CC3(C)C2C(O)C=C2C4C(C)C(C)(O)CC(OC(C)=O)C4(C)CCC23C)C(C)(C)C1O (centres unmarked) , can you help?
90

---

Record form. Attribute: viability at 24 h, 100 μg/mL. Fill in for each entry.
- Procedure Summary: Cytotoxicity, LDH assay, A375 cells
- Assay type: cell-based, human
- Test Context: human, A375 malignant melanoma cells; 100 μg/mL, 24 h, mean ± SD of three; read-out: Cell viability A375
Answers are plain numbers, in %.

Please look up its viability at 24 h, 100 μg/mL: CCC(C)C(=O)OC1C=C2C3C(C)C(C)(O)CC(OC(C)=O)C3(C)CCC2(C)C2(C)CC(OC(C)=O)C3C(C)(C)C(O)C(OC(C)=O)CC3(C)C12 (centres unmarked)
62.6

Next up:
Quick one: viability at 24 h, 100 μg/mL for CC(=O)OC1CC2(C)C(C(OC(C)=O)CC3(C)C2C(O)C=C2C4C(C)C(C)(O)CC(OC(C)=O)C4(C)CCC23C)C(C)(C)C1O (centres unmarked) ?
67.6
